assay: MB-102 pig plasma concentration after subcutaneous dosing; type: in vivo; details: Yorkshire, pig, plasma, subcutaneous, 3.2 mg/kg, pig 09802, SubQ, 3.2 mpk, 135 min; read-out: MB-102 Pig Plasma Conc.
measured_endpoint: concentration at 135 min (ng/mL)

INSERT INTO assay_data (molecule, endpoint_result) VALUES
  ('Nc1nc(C(=O)N[C@H](CO)C(=O)O)c(N)nc1C(=O)N[C@H](CO)C(=O)O', 3900);

----------
test: MB-102 pig plasma concentration after subcutaneous dosing; assay type: in vivo; conditions: Yorkshire, pig, plasma, subcutaneous, 3.2 mg/kg, pig 53701, SubQ, 3.2 mpk, 60 min; read-out: MB-102 Pig Plasma Conc.
measured_endpoint: concentration at 60 min

INSERT INTO assay_data (molecule, endpoint_result) VALUES
  ('Nc1nc(C(=O)N[C@H](CO)C(=O)O)c(N)nc1C(=O)N[C@H](CO)C(=O)O', '5940 ng/mL');

----------
assay: MB-102 pig plasma concentration after subcutaneous dosing; format: in vivo; details: Yorkshire, pig, plasma, subcutaneous, 3.2 mg/kg, pig 53701, SubQ, 3.2 mpk, 30 min; read-out: MB-102 Pig Plasma Conc.
measured_endpoint: concentration at 30 min (ng/mL)

INSERT INTO results (molecule, endpoint_result) VALUES
  ('Nc1nc(C(=O)N[C@H](CO)C(=O)O)c(N)nc1C(=O)N[C@H](CO)C(=O)O', 7410);

----------
assay: MB-102 pig plasma concentration after intramuscular dosing; type: in vivo; details: Yorkshire, plasma, intramuscular, 3.2 mg/kg; pig 09801, IM, 3.2 mpk, 105 min; read-out: MB-102 Pig Plasma Conc.
measured_endpoint: concentration at 105 min (ng/mL)

INSERT INTO assay_data (molecule, endpoint_result) VALUES
  ('Nc1nc(C(=O)N[C@H](CO)C(=O)O)c(N)nc1C(=O)N[C@H](CO)C(=O)O', 2720);

----------
experiment: MB-102 pig plasma concentration after intramuscular dosing; assay type: in vivo; details: Yorkshire, plasma, intramuscular, 3.2 mg/kg; pig 09801, IM, 3.2 mpk, 135 min; read-out: MB-102 Pig Plasma Conc.
measured_endpoint: concentration at 135 min (ng/mL)

INSERT INTO results (molecule, value_unit, endpoint_result) VALUES
  ('Nc1nc(C(=O)N[C@H](CO)C(=O)O)c(N)nc1C(=O)N[C@H](CO)C(=O)O', 'ng/mL', 1800);

----------
Experiment: MB-102 pig plasma concentration after IV dosing
Format: in vivo
Conditions: Yorkshire, plasma, 3.2 mg/kg; pig 48019, IV, 3.2 mpk, 60 min; read-out: MB-102 Pig Plasma Conc.
Experimental: Juvenile Yorkshire pigs weighing approximately 25 kg were anesthetized, their body temperature stabilized, and an IV port surgically placed. […] After the skin was dry the sensors were attached with commercially available skin adhesive and background skin auto-fluorescence measurements were recorded. […] At this point glomerular elimination of MB-102 by the kidneys led to a decrease of fluorescence signal over time. […]
measured_endpoint: concentration at 60 min (ng/mL)

INSERT INTO measurements (molecule, measured_endpoint, value_unit, endpoint_result) VALUES
  ('Nc1nc(C(=O)N[C@H](CO)C(=O)O)c(N)nc1C(=O)N[C@H](CO)C(=O)O', 'concentration at 60 min', 'ng/mL', 5880);

----------
experiment: MB-102 pig plasma concentration after subcutaneous dosing; assay type: in vivo; settings: Yorkshire, pig, plasma, subcutaneous, 3.2 mg/kg, pig 52771, SubQ, 3.2 mpk, 210 min; read-out: MB-102 Pig Plasma Conc.
measured_endpoint: concentration at 210 min (ng/mL)

INSERT INTO measurements (compound, measured_endpoint, endpoint_result) VALUES
  ('Nc1nc(C(=O)N[C@H](CO)C(=O)O)c(N)nc1C(=O)N[C@H](CO)C(=O)O [MB-102]', 'concentration at 210 min', 2830);

----------
test: MB-102 pig plasma concentration after subcutaneous dosing; format: in vivo; details: Yorkshire, pig, plasma, subcutaneous, 3.2 mg/kg, pig 09802, SubQ, 3.2 mpk, 330 min; read-out: MB-102 Pig Plasma Conc.
measured_endpoint: concentration at 330 min (ng/mL)

INSERT INTO results (molecule, endpoint_result) VALUES
  ('Nc1nc(C(=O)N[C@H](CO)C(=O)O)c(N)nc1C(=O)N[C@H](CO)C(=O)O', 1030);

----------
assay: MB-102 pig plasma concentration after subcutaneous dosing; assay type: in vivo; conditions: Yorkshire, pig, plasma, subcutaneous, 3.2 mg/kg, pig 53701, SubQ, 3.2 mpk, 345 min; read-out: MB-102 Pig Plasma Conc.
measured_endpoint: concentration at 345 min (ng/mL)

INSERT INTO assay_data (molecule, measured_endpoint, endpoint_result) VALUES
  ('Nc1nc(C(=O)N[C@H](CO)C(=O)O)c(N)nc1C(=O)N[C@H](CO)C(=O)O', 'concentration at 345 min', 704);

----------
assay: MB-102 pig plasma concentration after subcutaneous dosing; assay type: in vivo; conditions: Yorkshire, pig, plasma, subcutaneous, 3.2 mg/kg, pig 52771, SubQ, 3.2 mpk, 150 min; read-out: MB-102 Pig Plasma Conc.
measured_endpoint: concentration at 150 min (ng/mL)

INSERT INTO results (molecule, measured_endpoint, endpoint_result) VALUES
  ('Nc1nc(C(=O)N[C@H](CO)C(=O)O)c(N)nc1C(=O)N[C@H](CO)C(=O)O', 'concentration at 150 min', 4400);

----------
experiment: MB-102 pig plasma concentration after subcutaneous dosing; type: in vivo; settings: Yorkshire, pig, plasma, subcutaneous, 3.2 mg/kg, pig 52771, SubQ, 3.2 mpk, 270 min; read-out: MB-102 Pig Plasma Conc.
measured_endpoint: concentration at 270 min (ng/mL)

INSERT INTO assay_data (molecule, measured_endpoint, endpoint_result) VALUES
  ('Nc1nc(C(=O)N[C@H](CO)C(=O)O)c(N)nc1C(=O)N[C@H](CO)C(=O)O', 'concentration at 270 min', 1760);

----------
test: MB-102 pig plasma concentration after subcutaneous dosing; type: in vivo; conditions: Yorkshire, pig, plasma, subcutaneous, 3.2 mg/kg, pig 09802, SubQ, 3.2 mpk, 120 min; read-out: MB-102 Pig Plasma Conc.
measured_endpoint: concentration at 120 min

INSERT INTO assay_data (molecule, measured_endpoint, endpoint_result) VALUES
  ('Nc1nc(C(=O)N[C@H](CO)C(=O)O)c(N)nc1C(=O)N[C@H](CO)C(=O)O', 'concentration at 120 min', '4410 ng/mL');

----------
assay: MB-102 pig plasma concentration after intramuscular dosing; type: in vivo; details: Yorkshire, plasma, intramuscular, 3.2 mg/kg; pig 09801, IM, 3.2 mpk, 210 min; read-out: MB-102 Pig Plasma Conc.
measured_endpoint: concentration at 210 min (ng/mL)

INSERT INTO results (molecule, value_unit, endpoint_result) VALUES
  ('Nc1nc(C(=O)N[C@H](CO)C(=O)O)c(N)nc1C(=O)N[C@H](CO)C(=O)O', 'ng/mL', 841);

----------
test: MB-102 pig plasma concentration after subcutaneous dosing; type: in vivo; settings: Yorkshire, pig, plasma, subcutaneous, 3.2 mg/kg, pig 52771, SubQ, 3.2 mpk, 255 min; read-out: MB-102 Pig Plasma Conc.
measured_endpoint: concentration at 255 min (ng/mL)

INSERT INTO assay_data (molecule, endpoint_result) VALUES
  ('Nc1nc(C(=O)N[C@H](CO)C(=O)O)c(N)nc1C(=O)N[C@H](CO)C(=O)O', 2000);

----------
assay: MB-102 pig plasma concentration after intramuscular dosing; format: in vivo; settings: Yorkshire, plasma, intramuscular, 3.2 mg/kg; pig 09801, IM, 3.2 mpk, 240 min; read-out: MB-102 Pig Plasma Conc.
measured_endpoint: concentration at 240 min (ng/mL)

INSERT INTO measurements (molecule, endpoint_result) VALUES
  ('Nc1nc(C(=O)N[C@H](CO)C(=O)O)c(N)nc1C(=O)N[C@H](CO)C(=O)O', 578);

----------
assay: MB-102 pig plasma concentration after subcutaneous dosing; format: in vivo; conditions: Yorkshire, pig, plasma, subcutaneous, 3.2 mg/kg, pig 52771, SubQ, 3.2 mpk, 120 min; read-out: MB-102 Pig Plasma Conc.
measured_endpoint: concentration at 120 min (ng/mL)

INSERT INTO measurements (compound, measured_endpoint, endpoint_result) VALUES
  ('Nc1nc(C(=O)N[C@H](CO)C(=O)O)c(N)nc1C(=O)N[C@H](CO)C(=O)O [MB-102]', 'concentration at 120 min', 5560);

----------
assay: MB-102 pig plasma concentration after subcutaneous dosing; assay type: in vivo; conditions: Yorkshire, pig, plasma, subcutaneous, 3.2 mg/kg, pig 53701, SubQ, 3.2 mpk, 330 min; read-out: MB-102 Pig Plasma Conc.
measured_endpoint: concentration at 330 min (ng/mL)

INSERT INTO results (molecule, endpoint_result) VALUES
  ('Nc1nc(C(=O)N[C@H](CO)C(=O)O)c(N)nc1C(=O)N[C@H](CO)C(=O)O', 800);
